// reported z-score per item
Assay: osmotic lysis modulators in infected erythrocytes, primary screen, PSAC antagonist project, cell-based, P. falciparum Indochina, OD700, 3 h (AID 1156)
Settings: higher = more signal, called active from +8 up or from −8 down

{"compound": "Cc1ccc(S[C@]2(C(=O)NCc3ccccc3)CC(=O)N(Cc3ccccc3C(F)(F)F)[C@@H]2c2ccc(CO)cc2I)cc1", "z-score": 0.836}
{"compound": "CC(=O)NCCCC[C@@H]1NC(=O)[C@H]2C[C@@H](C(=O)O)[C@@H](c3cccc(OCCO)c3)N2C1=O", "z-score": -1.42}
{"compound": "COC(=O)C1=CC(c2ccc(CO)cc2)=CC(C2CC2)N(Cc2cc3c(cc2Br)OCO3)C=C1C(=O)OC (stereo not drawn)", "z-score": 0.954}
{"compound": "O=C1C2C=CC(C(O)C(c3ccccc3)c3ccccc3)N(Nc3ccccc3F)C2C(=O)N1c1ccccc1 (stereo not drawn)", "z-score": 0.663}
{"compound": "C=CCN1C(=O)[C@@]2(O[C@@H](CCO)[C@H]([Si](C)(C)c3ccc(OC)cc3)[C@H]2C)c2cc(N3CCCCC3=O)ccc21", "z-score": -0.302}
{"compound": "COCCCNC(=O)[C@]1(Cc2ccccc2N=[N+]=[N-])N=C(c2ccc(OCCCO)cc2)O[C@@H]1c1ccccc1", "z-score": 2.38}
{"compound": "COC(=O)C(CC#Cc1ccc2c(c1)[C@]1(C(=O)N2)[C@H](c2ccc(OCCO)cc2)N2[C@H](c3ccccc3)[C@H](c3ccccc3)OC(=O)[C@H]2[C@@H]1C(N)=O)C(=O)OC", "z-score": -0.623}
{"compound": "COc1cccc(C)c1NC(=O)O[C@H]1[C@H](OC(=O)Nc2ccccc2-c2ccccc2)[C@@H](OC(=O)Nc2ccccc2-c2ccccc2)[C@@H](OC)O[C@@H]1CO", "z-score": -0.857}
{"compound": "COCCOC(=O)N1C(=O)[C@@]2(c3ccccc31)[C@H](C(=O)Nc1nc3ccccc3s1)[C@H]1C(=O)O[C@H](c3ccccc3)[C@H](c3ccccc3)N1[C@@H]2c1ccccc1OCCO", "z-score": 0.0618}
{"compound": "COC(=O)C[C@H]1O[C@]2(C(=O)N(C)c3ccccc32)[C@@H](C)[C@@H]1[Si](C)(C)c1ccccc1", "z-score": 1.1}
{"compound": "COC(=O)C(CC#Cc1ccc2c(c1)[C@]1(C(=O)N2)[C@H](c2ccccc2OCCO)N2[C@H](c3ccccc3)[C@H](c3ccccc3)OC(=O)[C@H]2[C@@H]1C(=O)N1CCN(c2ncccn2)CC1)C(=O)OC", "z-score": 0.928}
{"compound": "C=C(C)C1CN([C@H](CO)c2ccccc2)C(=O)/C1=C\\c1ccccc1 (stereo partly drawn)", "z-score": -0.683}
{"compound": "C=CCOC(=O)[C@H]1[C@@H]2C(=O)O[C@@H](c3ccccc3)[C@@H](c3ccccc3)N2[C@@H](c2ccc(OCCOC(=O)[C@H]3C[C@H]4C(=O)NCC(=O)N4[C@H]3c3ccc(O)cc3)cc2)[C@]12C(=O)Nc1ccccc12", "z-score": 2.3}

---

Test: binders of probe aFSTL3 on microarray, primary screen, stem cell growth factor project, biochemical, small-molecule microarray, fluorescence 635/667 (AID 1064);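 note: measures binding of the biotinylated anti-FSTL3 antibody to printed compounds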
Details: higher = more signal
Parameter threshold = 0.2. Response is Criterion met when composite z-score meets or exceeds it, else Criterion not met.

{"molecule": "C=CCNC(=O)[C@H]1[C@@H]2C(=O)O[C@@H](c3ccccc3)[C@@H](c3ccccc3)N2[C@@H](c2ccc(OCCO)cc2)[C@]12C(=O)N(C(=O)OCCOC)c1ccc(C#CCNC(N)=O)cc12", "category label": "Criterion not met"}
{"molecule": "CC(=O)NCCCC[C@@H]1NC(=O)[C@H]2C[C@@H](C(=O)NCCCCCN)[C@@H](c3ccc(O)cc3)N2C1=O", "category label": "Criterion met"}
{"molecule": "C[C@H]1C2[C@H](Cc3ccccc3)NC(=O)[C@]23C(=O)N[C@@H](Cc2ccccc2)C(=O)N2CCC[C@H]2C(=O)NC/C=C/CC/C=C/C3[C@@H]2O[C@]12C (stereo partly specified)", "category label": "Criterion not met"}
{"molecule": "Cc1cccc([C@H]2C[C@H]3C(Br)=C[C@@]2(CO)C(=O)[C@]32CO2)c1", "category label": "Criterion not met"}
{"molecule": "C=CCNC(=O)[C@@H]1[C@H]2C(=O)O[C@H](c3ccccc3)[C@H](c3ccccc3)N2[C@H](c2ccc(O)cc2)[C@@]12C(=O)N(C(=O)OCCOC)c1ccc(C#CCC(C(=O)OC)C(=O)OC)cc12", "category label": "Criterion not met"}
{"molecule": "[N-]=[N+]=Nc1ccccc1C[C@@]1(C(=O)NCc2ccccc2)N=C(c2ccc(OCCCO)cc2)O[C@@H]1c1ccccc1", "category label": "Criterion met"}
{"molecule": "C=CCNC(=O)[C@@H]1[C@H]2C(=O)O[C@H](c3ccccc3)[C@H](c3ccccc3)N2[C@H](c2ccc(OCCO)cc2)[C@@]12C(=O)N(C(=O)OCCOC)c1ccccc12", "category label": "Criterion not met"}
{"molecule": "CC1(C)OB(/C=C\\CC(OC(=O)c2ccncc2)c2ccccc2)OC1(C)C (stereo unspecified)", "category label": "Criterion met"}
{"molecule": "C=CCNC(=O)[C@@H]1[C@H]2C(=O)O[C@H](c3ccccc3)[C@H](c3ccccc3)N2[C@H](c2ccc(OCCO)cc2)[C@@]12C(=O)Nc1ccc(C#CC3=CCCCC3)cc12", "category label": "Criterion not met"}
{"molecule": "CO[C@H]1O[C@H](CO)[C@@H](OC(=O)Nc2ccccc2)[C@@H]2OC(=O)[C@@H](Cc3ccccc3)C/C=C/C[C@H](Cc3ccccc3)C(=O)O[C@@H]12", "category label": "Criterion not met"}
{"molecule": "CC(C)N1CC=CC23O[C@@H]4/C=C\\CCCOC(=O)C4[C@H]2C(=O)N(C(C)CO)[C@@H]3C1=O (stereo partly specified)", "category label": "Criterion not met"}
{"molecule": "CC(C)c1ccc(NN2C(C(O)C(C)c3ccccc3)C=CC3C(=O)N(c4ccccc4)C(=O)C32)cc1 (stereo unspecified)", "category label": "Criterion met"}
{"molecule": "[N-]=[N+]=NCc1ccccc1[C@H]1OC(c2ccc(OCCCO)cc2)=N[C@@]1(CCS(=O)(=O)c1ccccc1)C(=O)O", "category label": "Criterion not met"}
{"molecule": "C[N+](C)(C)CCCC[C@@H]1NC(=O)[C@H]2C[C@@H](C(=O)NCCCCCN)[C@@H](c3ccc(O)cc3)N2C1=O", "category label": "Criterion not met"}
{"molecule": "COc1ccc(CCNC(=O)[C@@H]2c3ccccc3C(=O)N(Cc3cc(F)cc(C(F)(F)F)c3)[C@H]2c2ccc(CO)cc2)cc1", "category label": "Criterion met"}
{"molecule": "CC(C)c1ccc(NN2C(C(O)c3ccccc3)C=CC3C(=O)N(c4ccccc4)C(=O)C32)cc1 (stereo unspecified)", "category label": "Criterion met"}
{"molecule": "COc1cccc(C)c1NC(=O)O[C@H]1[C@H](OC(=O)Nc2ccc3c(c2)OCO3)[C@H](OC(=O)Nc2ccc3c(c2)OCO3)[C@@H](OC)O[C@@H]1CO", "category label": "Criterion met"}
{"molecule": "COC(=O)C(CC#Cc1ccc2c(c1)[C@]1(C(=O)N2)[C@H](C(=O)NC[C@H](O)c2ccccc2)[C@H]2C(=O)O[C@H](c3ccccc3)[C@H](c3ccccc3)N2[C@@H]1c1ccc(O)cc1)C(=O)OC", "category label": "Criterion not met"}
{"molecule": "C=CCOC(=O)[C@@H]1[C@H]2C(=O)O[C@H](c3ccccc3)[C@H](c3ccccc3)N2[C@H](c2ccc(OCCOC(=O)[C@H]3C[C@H]4C(=O)N[C@@H](CCCCN(C)C)C(=O)N4[C@H]3c3cccc(OCCO)c3)cc2)[C@@]12C(=O)Nc1ccccc12", "category label": "Criterion met"}
{"molecule": "COC(=O)C(CC#Cc1ccc2c(c1)[C@]1(C(=O)N2)[C@H](C(N)=O)[C@H]2C(=O)O[C@H](c3ccccc3)[C@H](c3ccccc3)N2[C@@H]1c1ccccc1OCCO)C(=O)OC", "category label": "Criterion met"}
{"molecule": "Cc1ccc(S[C@]2(C(=O)NCc3ccccc3)CC(=O)N(Cc3ccccc3Cl)[C@@H]2c2ccc(CO)cc2)cc1", "category label": "Criterion met"}
{"molecule": "O=C1OCCC/C=C\\[C@H]2OC34C=CCN(Cc5ccccc5)C(=O)[C@H]3N(CCO)C(=O)[C@@H]4C12 (stereo partly specified)", "category label": "Criterion not met"}
{"molecule": "C=C(C(=O)CC[C@H](OC(=O)c1ccccc1-c1ccccc1C(=O)O)c1ccc(OCCO)cc1)C(C)C", "category label": "Criterion not met"}
{"molecule": "COC(=O)c1ccc(OC)c(/C=C\\CC(OC(=O)c2ccncc2)c2ccccc2)c1 (stereo unspecified)", "category label": "Criterion not met"}
{"molecule": "O=C1OC[C@@H](c2ccccc2)n2cc(/C=C/c3ccccc3)cc21", "category label": "Criterion not met"}
